# studyTarget: MAP3K3 (Homo sapiens, UniProt Q99759)
# Sequence (Q99759 whole entry): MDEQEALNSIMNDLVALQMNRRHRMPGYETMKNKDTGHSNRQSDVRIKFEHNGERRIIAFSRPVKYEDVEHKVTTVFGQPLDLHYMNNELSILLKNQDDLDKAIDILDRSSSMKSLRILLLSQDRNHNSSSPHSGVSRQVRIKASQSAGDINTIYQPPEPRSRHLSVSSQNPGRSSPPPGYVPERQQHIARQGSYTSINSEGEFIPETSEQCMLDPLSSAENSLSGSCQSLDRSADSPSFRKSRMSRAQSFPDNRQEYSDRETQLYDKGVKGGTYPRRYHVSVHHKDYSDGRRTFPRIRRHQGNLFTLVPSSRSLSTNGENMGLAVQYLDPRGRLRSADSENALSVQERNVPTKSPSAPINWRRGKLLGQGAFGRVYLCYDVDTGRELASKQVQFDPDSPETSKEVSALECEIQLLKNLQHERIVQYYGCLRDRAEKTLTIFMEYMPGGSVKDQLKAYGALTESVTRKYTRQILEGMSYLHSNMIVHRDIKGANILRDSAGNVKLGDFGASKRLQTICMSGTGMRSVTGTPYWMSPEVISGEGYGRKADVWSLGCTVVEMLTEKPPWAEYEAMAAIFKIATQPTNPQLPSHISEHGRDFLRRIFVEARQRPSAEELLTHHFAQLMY
# methodSummary: biochemical
# Parameters: species or system HEK293/K-562/placenta mixed human extract; Kinobeads chemoproteomic competition binding, quantified by TMT LC-MS/MS, dose response up to 20 uM
pIC50: −log10 of the molar value.

entrySmiles | pIC50
COc1ccccc1-c1n[nH]c2nc(N[C@H]3CC[C@H](NS(=O)(=O)CCC(F)(F)F)CC3)nc(OC)c12 | ≤ 4.70

====

# studyTarget: MAPK7 (Homo sapiens)
# Sequence (Q13164 whole entry): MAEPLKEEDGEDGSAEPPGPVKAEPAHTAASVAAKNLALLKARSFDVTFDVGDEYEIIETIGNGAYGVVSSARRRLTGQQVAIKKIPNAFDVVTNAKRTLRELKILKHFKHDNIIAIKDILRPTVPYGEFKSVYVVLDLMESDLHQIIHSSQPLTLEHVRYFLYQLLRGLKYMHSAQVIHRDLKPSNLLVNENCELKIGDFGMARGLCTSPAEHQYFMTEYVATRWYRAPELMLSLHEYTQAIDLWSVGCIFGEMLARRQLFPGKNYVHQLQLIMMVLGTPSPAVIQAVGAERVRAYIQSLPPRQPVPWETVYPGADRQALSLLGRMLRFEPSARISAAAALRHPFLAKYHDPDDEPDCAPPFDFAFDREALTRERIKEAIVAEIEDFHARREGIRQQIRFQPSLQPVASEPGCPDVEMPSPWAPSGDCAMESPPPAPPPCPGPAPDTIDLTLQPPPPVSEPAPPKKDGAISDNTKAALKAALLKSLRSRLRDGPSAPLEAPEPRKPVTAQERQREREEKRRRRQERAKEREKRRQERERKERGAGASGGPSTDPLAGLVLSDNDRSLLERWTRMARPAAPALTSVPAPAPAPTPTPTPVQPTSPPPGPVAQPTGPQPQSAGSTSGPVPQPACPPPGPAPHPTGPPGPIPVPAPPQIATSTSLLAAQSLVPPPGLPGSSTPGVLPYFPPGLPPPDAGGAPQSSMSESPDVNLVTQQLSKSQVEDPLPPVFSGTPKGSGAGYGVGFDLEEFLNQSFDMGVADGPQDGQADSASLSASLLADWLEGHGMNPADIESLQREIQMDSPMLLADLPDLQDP
# methodSummary: biochemical
# Set-up: species or system HEK293/K-562/placenta mixed human extract; Kinobeads chemoproteomic competition binding, quantified by TMT LC-MS/MS, dose response up to 20 uM

molecule | IC50
COc1ccccc1-c1n[nH]c2nc(N[C@H]3CC[C@H](NS(=O)(=O)CCC(F)(F)F)CC3)nc(OC)c12 [compound 31] | ≥ 20 µM

====

# studyTarget: CSNK2A1 (Homo sapiens)
# methodSummary: biochemical
# Parameters: species or system HEK293/K-562/placenta mixed human extract; Kinobeads chemoproteomic competition binding, quantified by TMT LC-MS/MS, dose response up to 20 uM
readoutLabel: IC50

compound | val
COc1nc(N[C@H]2CC[C@H](NS(=O)(=O)CC(C)C)CC2)nc2[nH]nc(N3CCOC[C@H]3C)c12 [compound 39] | ≥ 20 µM

====

# studyTarget: RPS6KA4 (Homo sapiens)
# Sequence (O75676 whole entry): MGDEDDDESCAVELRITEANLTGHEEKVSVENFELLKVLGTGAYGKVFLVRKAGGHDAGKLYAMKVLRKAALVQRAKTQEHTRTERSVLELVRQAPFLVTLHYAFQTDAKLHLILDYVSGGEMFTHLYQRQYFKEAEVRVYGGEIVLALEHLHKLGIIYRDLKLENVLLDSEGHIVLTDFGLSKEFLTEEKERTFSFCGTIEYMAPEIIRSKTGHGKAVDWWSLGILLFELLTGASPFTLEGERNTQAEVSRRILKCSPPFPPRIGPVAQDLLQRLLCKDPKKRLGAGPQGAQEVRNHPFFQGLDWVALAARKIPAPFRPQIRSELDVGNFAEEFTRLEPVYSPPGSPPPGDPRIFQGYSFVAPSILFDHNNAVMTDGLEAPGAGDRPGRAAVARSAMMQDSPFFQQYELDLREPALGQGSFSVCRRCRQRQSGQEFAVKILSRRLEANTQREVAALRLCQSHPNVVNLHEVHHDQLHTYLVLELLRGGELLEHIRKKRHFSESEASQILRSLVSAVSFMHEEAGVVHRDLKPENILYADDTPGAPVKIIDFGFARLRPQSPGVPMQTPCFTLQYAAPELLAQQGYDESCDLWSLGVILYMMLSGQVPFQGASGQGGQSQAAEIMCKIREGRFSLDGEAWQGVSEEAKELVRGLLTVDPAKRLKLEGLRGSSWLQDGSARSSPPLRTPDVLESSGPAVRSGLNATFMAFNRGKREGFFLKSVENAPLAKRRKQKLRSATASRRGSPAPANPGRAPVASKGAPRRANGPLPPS
# methodSummary: biochemical
# Set-up: species or system HEK293/K-562/placenta mixed human extract; Kinobeads chemoproteomic competition binding, quantified by TMT LC-MS/MS, dose response up to 20 uM
pIC50: −log10 of the molar value.

compound | pIC50
COc1nc(N[C@H]2CC[C@H](NS(=O)(=O)CC(C)C)CC2)nc2[nH]nc(N3CCOC[C@H]3C)c12 [compound 39] | ≤ 4.70

====

# studyTarget: MKNK2 (Homo sapiens)
# Sequence (Q9HBH9 whole entry): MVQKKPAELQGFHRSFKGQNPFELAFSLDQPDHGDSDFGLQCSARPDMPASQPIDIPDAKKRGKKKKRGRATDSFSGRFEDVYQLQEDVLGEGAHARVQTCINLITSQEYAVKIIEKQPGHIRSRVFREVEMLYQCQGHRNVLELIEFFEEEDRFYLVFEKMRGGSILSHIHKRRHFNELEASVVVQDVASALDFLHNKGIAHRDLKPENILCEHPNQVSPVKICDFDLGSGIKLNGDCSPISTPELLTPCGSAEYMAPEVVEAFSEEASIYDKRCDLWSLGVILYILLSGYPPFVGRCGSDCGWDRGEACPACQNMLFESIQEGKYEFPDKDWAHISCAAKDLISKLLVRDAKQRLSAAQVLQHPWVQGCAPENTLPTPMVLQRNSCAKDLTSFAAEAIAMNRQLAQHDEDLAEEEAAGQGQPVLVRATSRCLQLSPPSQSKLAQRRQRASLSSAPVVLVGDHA
# methodSummary: biochemical
# Set-up: species or system HEK293/K-562/placenta mixed human extract; Kinobeads chemoproteomic competition binding, quantified by TMT LC-MS/MS, dose response up to 20 uM
pIC50: −log10 of the molar value.

compound | studyTarget | pIC50
COc1ccccc1-c1n[nH]c2nc(N[C@H]3CC[C@H](NS(=O)(=O)CCC(F)(F)F)CC3)nc(OC)c12 [compound 31] | MKNK2 (Homo sapiens) | ≤ 4.70

====

# studyTarget: RPS6KA6 (Homo sapiens, UniProt Q9UK32)
# Sequence (Q9UK32 whole entry): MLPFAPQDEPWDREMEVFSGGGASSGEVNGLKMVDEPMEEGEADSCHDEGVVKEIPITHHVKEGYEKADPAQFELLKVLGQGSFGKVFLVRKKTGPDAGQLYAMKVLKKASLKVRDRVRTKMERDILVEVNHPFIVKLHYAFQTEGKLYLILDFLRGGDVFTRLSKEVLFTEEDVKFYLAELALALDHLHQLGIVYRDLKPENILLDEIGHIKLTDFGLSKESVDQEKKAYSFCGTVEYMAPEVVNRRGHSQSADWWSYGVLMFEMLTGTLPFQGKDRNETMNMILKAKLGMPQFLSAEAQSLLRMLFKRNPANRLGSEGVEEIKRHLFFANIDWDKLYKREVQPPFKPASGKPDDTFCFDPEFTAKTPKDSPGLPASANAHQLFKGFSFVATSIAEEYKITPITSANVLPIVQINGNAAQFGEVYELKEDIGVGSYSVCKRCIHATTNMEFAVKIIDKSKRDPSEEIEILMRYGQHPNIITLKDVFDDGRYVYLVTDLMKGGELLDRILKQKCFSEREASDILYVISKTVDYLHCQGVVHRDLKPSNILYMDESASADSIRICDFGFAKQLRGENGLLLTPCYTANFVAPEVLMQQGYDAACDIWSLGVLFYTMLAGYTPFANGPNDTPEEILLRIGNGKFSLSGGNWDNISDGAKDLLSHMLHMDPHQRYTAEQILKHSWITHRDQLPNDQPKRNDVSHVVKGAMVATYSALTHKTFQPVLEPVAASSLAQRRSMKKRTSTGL
# methodSummary: biochemical
# Design: species or system HEK293/K-562/placenta mixed human extract; Kinobeads chemoproteomic competition binding, quantified by TMT LC-MS/MS, dose response up to 20 uM
readoutLabel: IC50

compound | readoutLabel | val
COc1ccccc1-c1n[nH]c2nc(N[C@H]3CC[C@H](NS(=O)(=O)CCC(F)(F)F)CC3)nc(OC)c12 [compound 31] | IC50 | ≥ 20 µM

====

# studyTarget: DYRK2 (Homo sapiens, UniProt Q92630)
# Sequence (Q92630 1-601): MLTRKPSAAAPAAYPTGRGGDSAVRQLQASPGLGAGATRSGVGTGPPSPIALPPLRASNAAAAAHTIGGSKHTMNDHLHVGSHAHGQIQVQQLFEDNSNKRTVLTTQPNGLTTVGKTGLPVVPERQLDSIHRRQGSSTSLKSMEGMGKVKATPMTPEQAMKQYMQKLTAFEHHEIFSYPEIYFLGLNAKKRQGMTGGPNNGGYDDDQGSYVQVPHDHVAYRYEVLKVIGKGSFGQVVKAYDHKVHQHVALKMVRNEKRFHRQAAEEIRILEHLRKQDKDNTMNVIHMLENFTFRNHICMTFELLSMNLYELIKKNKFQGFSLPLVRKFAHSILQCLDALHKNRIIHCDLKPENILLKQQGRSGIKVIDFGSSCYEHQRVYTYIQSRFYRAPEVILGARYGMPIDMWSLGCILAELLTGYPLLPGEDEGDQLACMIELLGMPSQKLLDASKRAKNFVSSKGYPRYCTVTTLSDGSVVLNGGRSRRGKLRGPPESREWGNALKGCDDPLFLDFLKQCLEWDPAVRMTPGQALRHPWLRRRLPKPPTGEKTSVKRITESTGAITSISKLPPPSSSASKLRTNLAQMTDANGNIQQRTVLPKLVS
pIC50: −log10 of the molar value.

compound | pIC50
COc1nc(N[C@H]2CC[C@H](NS(=O)(=O)CC(C)C)CC2)nc2[nH]nc(N3CCOC[C@H]3C)c12 [compound 39] | ≤ 4.70

====

# studyTarget: CDK5 (Homo sapiens)
# Sequence (Q00535 whole entry): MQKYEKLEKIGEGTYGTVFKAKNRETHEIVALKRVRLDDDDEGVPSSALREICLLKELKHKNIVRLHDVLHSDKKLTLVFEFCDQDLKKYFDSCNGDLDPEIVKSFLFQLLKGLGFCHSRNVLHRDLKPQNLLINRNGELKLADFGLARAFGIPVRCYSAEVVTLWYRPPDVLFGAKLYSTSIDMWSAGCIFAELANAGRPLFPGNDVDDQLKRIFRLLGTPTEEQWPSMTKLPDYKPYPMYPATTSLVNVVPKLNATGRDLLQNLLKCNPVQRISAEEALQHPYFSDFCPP
# methodSummary: biochemical
# Set-up: species or system HEK293/K-562/placenta mixed human extract; Kinobeads chemoproteomic competition binding, quantified by TMT LC-MS/MS, dose response up to 20 uM

entrySmiles | IC50
COc1nc(N[C@H]2CC[C@H](NS(=O)(=O)CC(C)C)CC2)nc2[nH]nc(N3CCOC[C@H]3C)c12 | 12 µM

====

# studyTarget: UniProt P15735
# Sequence (P15735 1-406): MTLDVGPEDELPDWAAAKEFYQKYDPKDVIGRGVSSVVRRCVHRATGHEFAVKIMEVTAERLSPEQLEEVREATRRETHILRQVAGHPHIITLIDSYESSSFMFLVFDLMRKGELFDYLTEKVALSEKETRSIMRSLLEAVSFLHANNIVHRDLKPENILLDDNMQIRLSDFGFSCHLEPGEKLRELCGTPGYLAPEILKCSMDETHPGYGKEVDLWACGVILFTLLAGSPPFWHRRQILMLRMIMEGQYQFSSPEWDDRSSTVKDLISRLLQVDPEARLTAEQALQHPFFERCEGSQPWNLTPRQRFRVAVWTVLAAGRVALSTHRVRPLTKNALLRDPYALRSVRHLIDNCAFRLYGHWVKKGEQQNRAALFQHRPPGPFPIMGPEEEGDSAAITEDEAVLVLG
# methodSummary: biochemical
# Parameters: species or system HEK293/K-562/placenta mixed human extract; Kinobeads chemoproteomic competition binding, quantified by TMT LC-MS/MS, dose response up to 20 uM
pIC50: −log10 of the molar value.

compound | studyTarget | pIC50
COc1nc(N[C@H]2CC[C@H](NS(=O)(=O)CC(C)C)CC2)nc2[nH]nc(N3CCOC[C@H]3C)c12 [compound 39] | UniProt P15735 | ≤ 4.70

====

# studyTarget: BRSK2 (Homo sapiens)
# Sequence (Q8IWQ3 whole entry): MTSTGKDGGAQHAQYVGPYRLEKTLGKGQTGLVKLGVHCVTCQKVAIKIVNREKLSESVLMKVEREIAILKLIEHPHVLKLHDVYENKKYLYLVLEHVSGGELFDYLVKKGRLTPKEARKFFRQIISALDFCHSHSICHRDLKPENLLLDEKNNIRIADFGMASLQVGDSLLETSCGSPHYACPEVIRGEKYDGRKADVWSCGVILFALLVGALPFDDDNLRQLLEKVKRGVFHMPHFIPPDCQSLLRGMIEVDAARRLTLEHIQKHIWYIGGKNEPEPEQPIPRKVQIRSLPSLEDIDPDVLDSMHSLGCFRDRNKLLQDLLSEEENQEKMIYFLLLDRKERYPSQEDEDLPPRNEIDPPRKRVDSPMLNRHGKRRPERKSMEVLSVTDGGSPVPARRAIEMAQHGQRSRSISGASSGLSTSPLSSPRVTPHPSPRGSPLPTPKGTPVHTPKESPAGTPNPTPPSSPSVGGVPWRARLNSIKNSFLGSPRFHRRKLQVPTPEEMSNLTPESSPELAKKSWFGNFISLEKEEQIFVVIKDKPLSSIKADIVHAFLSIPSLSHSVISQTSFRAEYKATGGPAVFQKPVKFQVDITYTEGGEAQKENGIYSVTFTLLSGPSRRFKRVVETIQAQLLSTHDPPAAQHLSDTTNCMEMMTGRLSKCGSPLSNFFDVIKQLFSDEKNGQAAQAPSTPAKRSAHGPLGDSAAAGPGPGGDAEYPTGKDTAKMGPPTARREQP
# methodSummary: biochemical
# Set-up: species or system HEK293/K-562/placenta mixed human extract; Kinobeads chemoproteomic competition binding, quantified by TMT LC-MS/MS, dose response up to 20 uM
readoutLabel: IC50

entrySmiles | studyTarget | readoutLabel | val
COc1ccccc1-c1n[nH]c2nc(N[C@H]3CC[C@H](NS(=O)(=O)CCC(F)(F)F)CC3)nc(OC)c12 | BRSK2 (Homo sapiens) | IC50 | ≥ 20 µM

====

# studyTarget: PKMYT1 (Homo sapiens, UniProt Q99640)
# Sequence (Q99640 whole entry): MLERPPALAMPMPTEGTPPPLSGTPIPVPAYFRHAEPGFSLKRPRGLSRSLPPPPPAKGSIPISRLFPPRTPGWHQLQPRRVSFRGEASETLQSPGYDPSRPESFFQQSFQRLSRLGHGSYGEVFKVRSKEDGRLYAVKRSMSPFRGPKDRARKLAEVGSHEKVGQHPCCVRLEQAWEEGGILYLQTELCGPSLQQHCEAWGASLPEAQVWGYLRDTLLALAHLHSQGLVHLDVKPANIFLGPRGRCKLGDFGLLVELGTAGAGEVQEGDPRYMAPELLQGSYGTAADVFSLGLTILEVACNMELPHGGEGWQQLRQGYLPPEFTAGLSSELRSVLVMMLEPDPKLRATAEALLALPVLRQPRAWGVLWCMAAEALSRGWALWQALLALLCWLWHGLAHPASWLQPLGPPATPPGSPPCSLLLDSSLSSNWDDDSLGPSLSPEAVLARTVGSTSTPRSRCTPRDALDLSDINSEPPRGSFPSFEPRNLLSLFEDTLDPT
# methodSummary: biochemical
# Parameters: species or system HEK293/K-562/placenta mixed human extract; Kinobeads chemoproteomic competition binding, quantified by TMT LC-MS/MS, dose response up to 20 uM
readoutLabel: IC50

compound | val
COc1nc(N[C@H]2CC[C@H](NS(=O)(=O)CC(C)C)CC2)nc2[nH]nc(N3CCOC[C@H]3C)c12 [compound 39] | ≥ 20 µM

====

# studyTarget: LATS1 (Homo sapiens)
# Sequence (O95835 1-1130): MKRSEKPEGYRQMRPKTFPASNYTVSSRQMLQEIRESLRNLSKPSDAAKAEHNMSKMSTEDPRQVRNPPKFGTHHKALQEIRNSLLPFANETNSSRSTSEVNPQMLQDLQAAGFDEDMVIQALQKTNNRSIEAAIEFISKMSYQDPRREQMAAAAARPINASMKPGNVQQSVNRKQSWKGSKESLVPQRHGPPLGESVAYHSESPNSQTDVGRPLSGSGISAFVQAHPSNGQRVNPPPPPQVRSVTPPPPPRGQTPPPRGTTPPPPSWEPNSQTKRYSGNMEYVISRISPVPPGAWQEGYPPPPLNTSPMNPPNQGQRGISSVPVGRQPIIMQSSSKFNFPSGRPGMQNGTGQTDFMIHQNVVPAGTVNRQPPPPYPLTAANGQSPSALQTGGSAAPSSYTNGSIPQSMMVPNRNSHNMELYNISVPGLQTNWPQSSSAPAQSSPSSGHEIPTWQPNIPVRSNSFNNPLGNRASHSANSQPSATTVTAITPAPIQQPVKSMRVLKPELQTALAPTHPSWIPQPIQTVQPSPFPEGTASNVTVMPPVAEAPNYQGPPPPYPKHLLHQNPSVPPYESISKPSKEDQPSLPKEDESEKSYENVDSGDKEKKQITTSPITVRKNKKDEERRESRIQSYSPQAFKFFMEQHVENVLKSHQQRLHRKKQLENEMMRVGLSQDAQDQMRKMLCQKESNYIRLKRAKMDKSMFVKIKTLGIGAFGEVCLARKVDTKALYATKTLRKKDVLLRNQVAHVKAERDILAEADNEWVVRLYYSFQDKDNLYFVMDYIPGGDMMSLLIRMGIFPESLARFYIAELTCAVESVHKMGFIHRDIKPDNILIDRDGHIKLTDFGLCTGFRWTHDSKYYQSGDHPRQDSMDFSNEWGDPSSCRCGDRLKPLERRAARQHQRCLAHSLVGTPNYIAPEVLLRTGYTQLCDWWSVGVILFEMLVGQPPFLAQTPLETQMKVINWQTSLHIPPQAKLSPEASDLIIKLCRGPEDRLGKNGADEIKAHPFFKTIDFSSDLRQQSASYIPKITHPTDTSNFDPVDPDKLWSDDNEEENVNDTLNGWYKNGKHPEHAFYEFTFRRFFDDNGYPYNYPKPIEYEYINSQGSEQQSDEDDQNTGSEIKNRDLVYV
# methodSummary: biochemical
# Design: species or system HEK293/K-562/placenta mixed human extract; Kinobeads chemoproteomic competition binding, quantified by TMT LC-MS/MS, dose response up to 20 uM

compound | studyTarget | IC50
COc1ccccc1-c1n[nH]c2nc(N[C@H]3CC[C@H](NS(=O)(=O)CCC(F)(F)F)CC3)nc(OC)c12 [compound 31] | LATS1 (Homo sapiens) | ≥ 20 µM
